# System: 2Sp-muMax20 (muMax20 with two 2,6-bis(methyl)pyridine Cys staples)
# run description: PBM 8-mer E-score (E-score (rank enrichment, -0.5 to 0.5)); higher = stronger preferential binding
In all, about 33,000 sequences were measured (“E-score (rank enrichment, -0.5 to 0.5)”: median about -0.0043, highest 2% from about 0.24 on). Shown is part of a subset that was picked to be rich in the highest values.
recorded endpoint: PBM 8-mer E-score
Give the figure only, with no unit attached.

Worked examples, 3 sequences total:
- residue codes: "CGCGCGTC"
  recorded endpoint: "PBM 8-mer E-score"
  reading: 0.28
- residue codes: "TCACAAAA"
  recorded endpoint: "PBM 8-mer E-score"
  reading: 0.0933
- residue codes: "AACGCGTA"
  recorded endpoint: "PBM 8-mer E-score"
  reading: -0.0641

Quick check: PBM 8-mer E-score of ACCGCGTA ?
-0.0143

Quick check: PBM 8-mer E-score of AACACGTA ?
0.0789

Quick check: PBM 8-mer E-score of CGCGCGTA ?
0.176

Quick check: PBM 8-mer E-score of CATACGTA ?
0.297

Quick check: PBM 8-mer E-score of AAAAGAAA ?
0.0569

Quick check: PBM 8-mer E-score of AACGCGTC ?
-0.0413

Quick check: PBM 8-mer E-score of CGGCTCAG ?
-0.245

Quick check: PBM 8-mer E-score of CACGCGTA ?
0.175

* * *

# Tested on: 2Sp-muMax20 (muMax20 with two 2,6-bis(methyl)pyridine Cys staples)
# run description: PBM 8-mer E-score (E-score (rank enrichment, -0.5 to 0.5)); higher = stronger preferential binding
The full ranking holds about 33,000 sequences; the median of “E-score (rank enrichment, -0.5 to 0.5)” is about -0.0043, and the highest 2% start at about 0.24. Only a selection was taken, and the highest values are over-represented in it overall.
recorded endpoint: PBM 8-mer E-score

- residue codes: "CCTTCACA"
  reading: 0.256
- residue codes: "ATATCCCC"
  reading: 0.28
- residue codes: "CATGCGAG"
  reading: 0.165
- residue codes: "ATCAAGAC"
  reading: -0.00991
- residue codes: "ACTTCACA"
  reading: 0.00636

Quick check: PBM 8-mer E-score of AATGCGAC ?
0.0252

Quick check: PBM 8-mer E-score of TATTCAAA ?
0.197

Quick check: PBM 8-mer E-score of CCTTCACG ?
-0.0558

Quick check: PBM 8-mer E-score of CATGCGAC ?
0.308

Quick check: PBM 8-mer E-score of CATGCACG ?
0.0888

Quick check: PBM 8-mer E-score of GATGCACA ?
0.0774

Quick check: PBM 8-mer E-score of ATATCCTC ?
0.265

Quick check: PBM 8-mer E-score of GATTCACA ?
0.0451

* * *

# System: 2Sp-muMax20 (muMax20 with two 2,6-bis(methyl)pyridine Cys staples)
# run description: PBM 8-mer E-score (E-score (rank enrichment, -0.5 to 0.5)); higher = stronger preferential binding
Over roughly 33,000 sequences, “E-score (rank enrichment, -0.5 to 0.5)” has its median near -0.0043; the highest 2% begin near 0.24. Many of the other results were omitted from the sample, so the highest values are more common in it than they were.
Note to self: values exactly at 0.1 are Yes. So PBM 8-mer E-score at or above 0.1 is Yes, below is No.

Reference set (2 entries):
- residue codes: "ATATATGA"
  class: "Yes"
- residue codes: "ACCTTGAT"
  class: "No"

Here's the next entry for you.
# bool: PBM 8-mer E-score of TGGGCCAA >= 0.1
No
